# System: Caco-2
# assay-remarks: cell viability relative to DMSO; higher = less toxic
# test-parameters: 72 h; 10 nM
result-type: cell viability (%)
Your answer should be a plain number; it is taken to be in %.

Answered cases to consult:
[
  {
    "compound": "C[C@]12CCC(=O)C=C1CC[C@@H]1[C@@H]2CC[C@@]2(C)[C@H]1CC[C@]2(O)C(=O)CO [cortodoxone]",
    "test-system": "Caco-2",
    "cell viability [%]": 95.5
  },
  {
    "compound": "O=c1[nH]c2ccccc2c(=O)n1CCCN1CCN(c2ccccc2)CC1 [pelanserin]",
    "test-system": "Caco-2",
    "cell viability [%]": 102
  },
  {
    "compound": "O=C(CCCl)NCCc1ccccc1 [fenaclon]",
    "test-system": "Caco-2",
    "cell viability [%]": 126
  },
  {
    "compound": "O=C(NCc1ccncc1)C12CC3CC(C1)CC(c1ccc(Cl)cc1)(C3)C2",
    "test-system": "Caco-2",
    "cell viability [%]": 94.9
  }
]

Value wanted: cell viability (Caco-2) of entry C[C@H]1N=C(N(C)C)N=C(N)N1 [imeglimin]
88

----------
# System: Calu-3
# assay-remarks: cell viability relative to DMSO; higher = less toxic
# test-parameters: 72 h; 100 nM
result-type: cell viability (%)
Your answer should be a plain number; it is taken to be in %.

[
  {
    "molecule": "C[C@H](NC(=O)CNC(=O)c1cccc(Cl)c1)c1ccccc1",
    "cell viability / %": 96.3
  },
  {
    "molecule": "Cc1ccc(S(=O)(=O)NC(=O)NN2CCCCCC2)cc1 [tolazamide]",
    "cell viability / %": 88
  },
  {
    "molecule": "c1ccc(-c2n[nH]cc2-c2ccnc3ccccc23)nc1",
    "cell viability / %": 110
  }
]

Sample Nc1ccccc1S(N)(=O)=O [2-aminobenzenesulfonamide] — what was its cell viability?
101

Sample O=C(NCCCCCCNC(=O)ON=C1CCCCC1)ON=C1CCCCC1 — what was its cell viability?
108

Sample O=C(O)c1cc(C(=O)O)c(C(=O)N(Cc2cccc(Oc3ccccc3)c2)[C@H]2CCCc3ccccc32)cc1C(=O)O — what was its cell viability?
103

Sample Cc1ncc(CN2CC=C(c3ccccc3)CC2)c(N)n1 — what was its cell viability?
103

Sample CCc1oc2ccccc2c1C(=O)c1cc(Br)c(O)c(Br)c1 — what was its cell viability?
105

Sample COc1cc2ncnc(Nc3cccc(Br)c3)c2cc1OC — what was its cell viability?
96.5

Sample C[C@@H](CN)CC(=O)O — what was its cell viability?
93.4

Sample CC[C@H](CC#N)OC(=O)N[C@@H](C)c1cccc(NC(=O)Nc2ccc(-c3cnco3)c(OC)c2)c1 — what was its cell viability?
88.7

Sample NS(=O)(=O)C#Cc1ccccc1 — what was its cell viability?
98.4

Sample Clc1cccc(Nc2nnc(-c3ccccc3)c3ccccc23)c1 — what was its cell viability?
88.2

Sample Nc1nc(O)c2[nH]nnc2n1 — what was its cell viability?
89.5

----------
Overview of recorded cell viability for various molecules
# System: U2OS
# assay-remarks: cell viability relative to DMSO; higher = less toxic
# test-parameters: 72 h; 10000 nM
Your answer should be a plain number; it is taken to be in %.

[
  {
    "molecule": "C[N+](C)(C)CCCCCC[N+](C)(C)C",
    "observed": 99.8
  },
  {
    "molecule": "C=CC(=O)Nc1cc(Nc2nccc(-c3cn(C)c4ccccc34)n2)c(OC)cc1N(C)CCN(C)C",
    "observed": 5
  },
  {
    "molecule": "CCN(c1cc(-c2ccc(CN3CCOCC3)cc2)cc(C(=O)NCc2c(C)cc(C)[nH]c2=O)c1C)C1CCOCC1",
    "observed": 93.8
  },
  {
    "molecule": "NS(=O)(=O)C#Cc1ccccc1",
    "observed": 20
  },
  {
    "molecule": "CC(C)OC(=O)c1cc2c(OC[C@@H](O)CNC(C)(C)C)cccc2[nH]1",
    "observed": 91.9
  },
  {
    "molecule": "C[C@H](NC(=O)CNC(=O)c1cccc(Cl)c1)c1ccccc1",
    "observed": 101
  },
  {
    "molecule": "CS(=O)(=O)Nc1ccc(-c2coc3cc(OCc4cccc(C(=O)O)c4)ccc3c2=O)cc1",
    "observed": 103
  },
  {
    "molecule": "COc1cc2c(cc1O)C(CCc1ccc(Cl)cc1)N(C)CC2 (stereo not drawn)",
    "observed": 97.9
  }
]

Sample NC(N)=Nc1nc(CSCC/C(N)=N/S(N)(=O)=O)cs1 [famotidine] — what was its cell viability?
99.4

Sample O=C(O)C(Cl)Cl [dichloroacetate] — what was its cell viability?
99.6

Sample CCCCC/C=C\C=C\CCCCCCCCC(=O)O [trans-10,cis-12-conjugated-linoleic-acid] — what was its cell viability?
102

Sample CC(=O)[C@H]1CC[C@H]2[C@@H]3C[C@H](C)C4=CC(=O)CC[C@]4(C)[C@H]3[C@@H](O)C[C@]12C — what was its cell viability?
99.6

Sample Nc1nc(=O)n([C@H]2C[C@H](O)[C@@H](CO)O2)cc1F — what was its cell viability?
86.2
